Quick reference for relative viability among some molecules
test system: LC-2-ad; test: relative viability (nuclei count vs DMSO), 5 days (fraction); higher = more cells survive; conditions: first compound 1 µM
test_readout: relative viability

O=c1cc(N2CCOCC2)oc2c(-c3cccc4c3sc3ccccc34)cccc12 + Cc1nc(Nc2ncc(C(=O)Nc3c(C)cccc3Cl)s2)cc(N2CCN(CCO)CC2)n1 [Dasatinib] (partner 0.075 µM) : 0.527
O=c1cc(N2CCOCC2)oc2c(-c3cccc4c3sc3ccccc34)cccc12 + COc1cccc2cc(-c3nc([C@H]4CC[C@H](C(=O)O)CC4)n4ncnc(N)c34)[nH]c12 [OSI-027] (partner 0.5 µM) : 0.785
O=c1cc(N2CCOCC2)oc2c(-c3cccc4c3sc3ccccc34)cccc12 + CS(=O)(=O)N1CCN(Cc2cc3nc(-c4cccc5[nH]ncc45)nc(N4CCOCC4)c3s2)CC1 [Pictilisib] (partner 1 µM) : 0.526
CCN(CC)CCCCNc1ncc2cc(-c3cc(OC)cc(OC)c3)c(NC(=O)NC(C)(C)C)nc2n1 + Cc1nc(Nc2ncc(C(=O)Nc3c(C)cccc3Cl)s2)cc(N2CCN(CCO)CC2)n1 [Dasatinib] (partner 0.075 µM) : 0.344

* * *

Quick reference for relative viability among some compounds
tested on: LCLC-97TM1; test: relative viability (nuclei count vs DMSO), 5 days (fraction); higher = more cells survive; conditions: first compound 1 µM
test_readout: relative viability

CCN(CC)CCCCNc1ncc2cc(-c3cc(OC)cc(OC)c3)c(NC(=O)NC(C)(C)C)nc2n1 + Nc1ncn([C@H]2C[C@H](O)[C@@H](CO)O2)c(=O)n1 [Decitabine] (partner 2 µM) : 0.255
CCN(CC)CCCCNc1ncc2cc(-c3cc(OC)cc(OC)c3)c(NC(=O)NC(C)(C)C)nc2n1 + O=C(CCCCCCC(=O)Nc1ccccc1)NO [Vorinostat] (partner 1 µM) : 0.699
CCN(CC)CCCCNc1ncc2cc(-c3cc(OC)cc(OC)c3)c(NC(=O)NC(C)(C)C)nc2n1 + CS(=O)(=O)CCNCc1ccc(-c2ccc3ncnc(Nc4ccc(OCc5cccc(F)c5)c(Cl)c4)c3c2)o1 [Lapatinib] (partner 2 µM) : 1.12
CCN(CC)CCCCNc1ncc2cc(-c3cc(OC)cc(OC)c3)c(NC(=O)NC(C)(C)C)nc2n1 + CC1(C)CCC(c2ccc(Cl)cc2)=C(CN2CCN(c3ccc(C(=O)NS(=O)(=O)c4ccc(N[C@H](CCN5CCOCC5)CSc5ccccc5)c(S(=O)(=O)C(F)(F)F)c4)cc3)CC2)C1 [Navitoclax] (partner 0.5 µM) : 0.4
O=c1cc(N2CCOCC2)oc2c(-c3cccc4c3sc3ccccc34)cccc12 + C[C@@H](Oc1cc(-c2cnn(C3CCNCC3)c2)cnc1N)c1c(Cl)ccc(F)c1Cl [Crizotinib] (partner 1 µM) : 0.39
CCN(CC)CCCCNc1ncc2cc(-c3cc(OC)cc(OC)c3)c(NC(=O)NC(C)(C)C)nc2n1 + C[C@]1(O)C[C@@H](c2nc(-c3ccc4ccc(-c5ccccc5)nc4c3)c3c(N)nccn32)C1 [Linsitinib] (partner 1 µM) : 0.216
CCN(CC)CCCCNc1ncc2cc(-c3cc(OC)cc(OC)c3)c(NC(=O)NC(C)(C)C)nc2n1 + CC(=O)c1c(C)c2cnc(Nc3ccc(N4CCNCC4)cn3)nc2n(C2CCCC2)c1=O [Palbociclib] (partner 0.5 µM) : 0.218
CCN(CC)CCCCNc1ncc2cc(-c3cc(OC)cc(OC)c3)c(NC(=O)NC(C)(C)C)nc2n1 + COc1cc2c(Oc3ccc(NC(=O)C4(C(=O)Nc5ccc(F)cc5)CC4)cc3F)ccnc2cc1OCCCN1CCOCC1 [Foretinib] (partner 0.25 µM) : 0.95
CCN(CC)CCCCNc1ncc2cc(-c3cc(OC)cc(OC)c3)c(NC(=O)NC(C)(C)C)nc2n1 + CS(=O)(=O)N1CCN(Cc2cc3nc(-c4cccc5[nH]ncc45)nc(N4CCOCC4)c3s2)CC1 [Pictilisib] (partner 1 µM) : 0.178

* * *

test system: H3255; assay: relative viability (nuclei count vs DMSO), 5 days (fraction); higher = more cells survive; settings: first compound 2 µM
test_readout: relative viability

COCC1(CO)C(=O)C2CCN1CC2 (stereo not drawn) [PRIMA-1MET] + Cc1cc(Nc2cc(N3CCN(C)CC3)nc(Sc3ccc(NC(=O)C4CC4)cc3)n2)n[nH]1 [Tozasertib] (partner 0.1 µM) : 0.461
COCC1(CO)C(=O)C2CCN1CC2 (stereo not drawn) [PRIMA-1MET] + CC(C)C[C@H](NC(=O)[C@H](Cc1ccccc1)NC(=O)c1cnccn1)B(O)O [Bortezomib] (partner 0.002 µM) : 0.771
COCC1(CO)C(=O)C2CCN1CC2 (stereo not drawn) [PRIMA-1MET] + Nc1ncn([C@H]2C[C@H](O)[C@@H](CO)O2)c(=O)n1 [Decitabine] (partner 2 µM) : 0.524

* * *

Quick reference for relative viability among some compounds
system: SK-LU-1; assay: relative viability (nuclei count vs DMSO), 5 days (fraction); higher = more cells survive; conditions: first compound 20 µM
test_readout: relative viability

COCC1(CO)C(=O)C2CCN1CC2 (stereo not drawn) [PRIMA-1MET] + Cc1nc(Nc2ncc(C(=O)Nc3c(C)cccc3Cl)s2)cc(N2CCN(CCO)CC2)n1 [Dasatinib] (partner 0.075 µM) : 0.0741
COCC1(CO)C(=O)C2CCN1CC2 (stereo not drawn) [PRIMA-1MET] + CS(=O)(=O)N1CCN(Cc2cc3nc(-c4cccc5[nH]ncc45)nc(N4CCOCC4)c3s2)CC1 [Pictilisib] (partner 1 µM) : 0.142
COCC1(CO)C(=O)C2CCN1CC2 (stereo not drawn) [PRIMA-1MET] + Cc1cc(Nc2cc(N3CCN(C)CC3)nc(Sc3ccc(NC(=O)C4CC4)cc3)n2)n[nH]1 [Tozasertib] (partner 0.1 µM) : 0.24

* * *

tested on: NCI-H2009; experiment: relative viability (nuclei count vs DMSO), 5 days (fraction); higher = more cells survive; details: first compound 0.3162 µM
test_readout: relative viability

CCN(CC)CCCCNc1ncc2cc(-c3cc(OC)cc(OC)c3)c(NC(=O)NC(C)(C)C)nc2n1 + O=C(c1cc(Cc2n[nH]c(=O)c3ccccc23)ccc1F)N1CCN(C(=O)C2CC2)CC1 [Olaparib] (partner 8 µM) : 0.75
CCN(CC)CCCCNc1ncc2cc(-c3cc(OC)cc(OC)c3)c(NC(=O)NC(C)(C)C)nc2n1 + Nc1ncn([C@H]2C[C@H](O)[C@@H](CO)O2)c(=O)n1 [Decitabine] (partner 2 µM) : 0.387
O=c1cc(N2CCOCC2)oc2c(-c3cccc4c3sc3ccccc34)cccc12 + O=C(c1cc(Cc2n[nH]c(=O)c3ccccc23)ccc1F)N1CCN(C(=O)C2CC2)CC1 [Olaparib] (partner 8 µM) : 0.652
O=c1cc(N2CCOCC2)oc2c(-c3cccc4c3sc3ccccc34)cccc12 + CCNC(=O)c1noc(-c2cc(C(C)C)c(O)cc2O)c1-c1ccc(CN2CCOCC2)cc1 [Luminespib] (partner 0.01 µM) : 0.962
CCN(CC)CCCCNc1ncc2cc(-c3cc(OC)cc(OC)c3)c(NC(=O)NC(C)(C)C)nc2n1 + CC(C)C[C@H](NC(=O)[C@H](Cc1ccccc1)NC(=O)c1cnccn1)B(O)O [Bortezomib] (partner 0.002 µM) : 1.07

* * *

system: NCI-H1563; assay: relative viability (nuclei count vs DMSO), 5 days (fraction); higher = more cells survive; conditions: first compound 0.08 µM
Quick reference for relative viability among some compounds
test_readout: relative viability

O=c1cc(-c2cccc3c2Sc2ccccc2S3)oc(N2CCOCC2)c1 + COc1cccc2cc(-c3nc([C@H]4CC[C@H](C(=O)O)CC4)n4ncnc(N)c34)[nH]c12 [OSI-027] (partner 0.5 µM) : 0.728
COc1nc(C)cnc1NS(=O)(=O)c1cccnc1-c1ccc(-c2nnco2)cc1 [Zibotentan] + C[C@@H](Oc1cc(-c2cnn(C3CCNCC3)c2)cnc1N)c1c(Cl)ccc(F)c1Cl [Crizotinib] (partner 1 µM) : 0.821
O=c1cc(-c2cccc3c2Sc2ccccc2S3)oc(N2CCOCC2)c1 + C[C@]1(O)C[C@@H](c2nc(-c3ccc4ccc(-c5ccccc5)nc4c3)c3c(N)nccn32)C1 [Linsitinib] (partner 1 µM) : 1.19
O=c1cc(-c2cccc3c2Sc2ccccc2S3)oc(N2CCOCC2)c1 + Nc1nc2[nH]cc(CCc3ccc(C(=O)N[C@@H](CCC(=O)O)C(=O)O)cc3)c2c(=O)[nH]1 [Pemetrexed] (partner 0.2 µM) : 0.695
O=c1cc(-c2cccc3c2Sc2ccccc2S3)oc(N2CCOCC2)c1 + C[C@@H](Oc1cc(-c2cnn(C3CCNCC3)c2)cnc1N)c1c(Cl)ccc(F)c1Cl [Crizotinib] (partner 1 µM) : 0.93

* * *

tested on: LU99A; assay: relative viability (nuclei count vs DMSO), 5 days (fraction); higher = more cells survive; conditions: first compound 0.03162 µM
Mark true only for relative viability values smaller than 0.5; exact matches and larger values are false.

O=c1cc(N2CCOCC2)oc2c(-c3cccc4c3sc3ccccc34)cccc12 + Cc1nc(Nc2ncc(C(=O)Nc3c(C)cccc3Cl)s2)cc(N2CCN(CCO)CC2)n1 [Dasatinib] (partner 0.075 µM) : false
O=c1cc(N2CCOCC2)oc2c(-c3cccc4c3sc3ccccc34)cccc12 + C[C@]1(O)C[C@@H](c2nc(-c3ccc4ccc(-c5ccccc5)nc4c3)c3c(N)nccn32)C1 [Linsitinib] (partner 1 µM) : false
O=c1cc(N2CCOCC2)oc2c(-c3cccc4c3sc3ccccc34)cccc12 + CS(=O)(=O)CCNCc1ccc(-c2ccc3ncnc(Nc4ccc(OCc5cccc(F)c5)c(Cl)c4)c3c2)o1 [Lapatinib] (partner 2 µM) : false
CCN(CC)CCCCNc1ncc2cc(-c3cc(OC)cc(OC)c3)c(NC(=O)NC(C)(C)C)nc2n1 + CC(=O)c1c(C)c2cnc(Nc3ccc(N4CCNCC4)cn3)nc2n(C2CCCC2)c1=O [Palbociclib] (partner 0.5 µM) : true
O=c1cc(N2CCOCC2)oc2c(-c3cccc4c3sc3ccccc34)cccc12 + NC(=O)Nc1cc(-c2cccc(F)c2)sc1C(=O)N[C@H]1CCCNC1 [AZD7762] (partner 0.2 µM) : true
CCN(CC)CCCCNc1ncc2cc(-c3cc(OC)cc(OC)c3)c(NC(=O)NC(C)(C)C)nc2n1 + Nc1ncn([C@H]2C[C@H](O)[C@@H](CO)O2)c(=O)n1 [Decitabine] (partner 2 µM) : false
CCN(CC)CCCCNc1ncc2cc(-c3cc(OC)cc(OC)c3)c(NC(=O)NC(C)(C)C)nc2n1 + CCNC(=O)c1noc(-c2cc(C(C)C)c(O)cc2O)c1-c1ccc(CN2CCOCC2)cc1 [Luminespib] (partner 0.01 µM) : true
CCN(CC)CCCCNc1ncc2cc(-c3cc(OC)cc(OC)c3)c(NC(=O)NC(C)(C)C)nc2n1 + CC(=O)Nc1cccc(-n2c(=O)n(C3CC3)c(=O)c3c(Nc4ccc(I)cc4F)n(C)c(=O)c(C)c32)c1 [Trametinib] (partner 0.02 µM) : false
CCN(CC)CCCCNc1ncc2cc(-c3cc(OC)cc(OC)c3)c(NC(=O)NC(C)(C)C)nc2n1 + C[C@]1(O)C[C@@H](c2nc(-c3ccc4ccc(-c5ccccc5)nc4c3)c3c(N)nccn32)C1 [Linsitinib] (partner 1 µM) : false
CCN(CC)CCCCNc1ncc2cc(-c3cc(OC)cc(OC)c3)c(NC(=O)NC(C)(C)C)nc2n1 + O=C(c1cc(Cc2n[nH]c(=O)c3ccccc23)ccc1F)N1CCN(C(=O)C2CC2)CC1 [Olaparib] (partner 8 µM) : true
